Provenance of the data: PubChem BioAssay AID1963826

Tested on: 926638-142-R-J1-PDC complex spheroid viability
Assay: Anticancer human tumor 926638-142-R-J1-PDC patient-derived endometrial carcinoma cell line growth inhibition [POLQ]
Conditions: second compound 0.0316 µM; first compound 1 µM; active compounds read low
Description: Multicellular complex tumor spheroid response to Polymerase (POL) inhibitors (novobiocin, ART-558, RP6685) in combination with a variety of drugs and investigational agents in selected tumor cell lines The POL inhibitors (novobiocin, ART-558, and RP6685) were evaluated both individually and in combination with standard of care and investigational anticancer small molecules within a complex spheroid model of solid tumors. . […]
observable: viability, T/C (%)
Kindly provide the numeric value in % only, without the unit symbol.

Answered cases to consult:
- compound: "O=c1[nH]cc(F)c(=O)[nH]1 + COC1C(OC(N)=O)C(O)C(Oc2ccc3c(O)c(NC(=O)c4ccc(O)c(CC=C(C)C)c4)c(=O)oc3c2C)OC1(C)C"
  viability, T/C, %: 101
- compound: "CC1COCCN1c1cc(-c2ccnn2C)c2ccnc(-c3ccn[nH]3)c2n1 (stereo not given) + COC1C(OC(N)=O)C(O)C(Oc2ccc3c(O)c(NC(=O)c4ccc(O)c(CC=C(C)C)c4)c(=O)oc3c2C)OC1(C)C"
  viability, T/C, %: 32.8
- compound: "CCc1cc2c(N3CCc4c(cc(Cn5ccnc5)cc4-c4cn(C)nc4C(F)(F)F)C3=O)cc(C)nc2c(OC)n1 + COC1C(OC(N)=O)C(O)C(Oc2ccc3c(O)c(NC(=O)c4ccc(O)c(CC=C(C)C)c4)c(=O)oc3c2C)OC1(C)C"
  viability, T/C, %: 42.6
- compound: "COc1cc2cc(C(=O)CCC(=O)O)sc2cc1OC + Nc1ccc(C#CCN(C(=O)Cc2ncc(C(F)(F)F)cc2C(F)(F)F)c2ccc(F)cc2)nn1"
  viability, T/C, %: 98.5
- compound: "CNCc1ccc(-c2[nH]c3cc(F)cc4c3c2CCNC4=O)cc1 + COC1C(OC(N)=O)C(O)C(Oc2ccc3c(O)c(NC(=O)c4ccc(O)c(CC=C(C)C)c4)c(=O)oc3c2C)OC1(C)C"
  viability, T/C, %: 81

Ask | Which value of viability, T/C has been reported for CC1COCCN1c1cc(C2(O)CC3CCC(C2)O3)c2cnn(-c3ccn[nH]3)c2n1 (stereo not given) + Cc1cccc(N(C)C(=O)C2C(O)CCN2c2nc(C)cc(C(F)(F)F)c2C#N)c1 in the records?
Reply | 13.3

Ask | Which value of viability, T/C has been reported for COc1cccc(OCCCN)c1-c1cc(Nc2cnc(C#N)cn2)n[nH]1 + Nc1ccc(C#CCN(C(=O)Cc2ncc(C(F)(F)F)cc2C(F)(F)F)c2ccc(F)cc2)nn1 in the records?
Reply | 32.3

Ask | Which value of viability, T/C has been reported for CCCS(=O)(=O)Nc1ccc(F)c(C(=O)c2c[nH]c3ncc(-c4ccc(Cl)cc4)cc23)c1F + COC1C(OC(N)=O)C(O)C(Oc2ccc3c(O)c(NC(=O)c4ccc(O)c(CC=C(C)C)c4)c(=O)oc3c2C)OC1(C)C in the records?
Reply | 122

Ask | Which value of viability, T/C has been reported for O=C(Nc1ccc(O)c(NS(=O)(=O)c2ccc(F)cc2)c1)c1ccc(-c2ccccc2)cc1 + Nc1ccc(C#CCN(C(=O)Cc2ncc(C(F)(F)F)cc2C(F)(F)F)c2ccc(F)cc2)nn1 in the records?
Reply | 110

Ask | Which value of viability, T/C has been reported for C#Cc1c(F)ccc2cc(O)cc(-c3ncc4c(N5CC6CCC(C5)N6)nc(OCC56CCCN5CC(F)C6)nc4c3F)c12 (stereo not given) + COC1C(OC(N)=O)C(O)C(Oc2ccc3c(O)c(NC(=O)c4ccc(O)c(CC=C(C)C)c4)c(=O)oc3c2C)OC1(C)C in the records?
Reply | 84.2

* * *

system: 926638-142-R-J1-PDC complex spheroid viability; experiment: Anticancer human tumor 926638-142-R-J1-PDC cell line growth inhibition [POLQ]; conditions: second compound 0.316 µM; first compound 1 µM; active compounds read low;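 further: spheroids exposed to drugs for one week before readout; percent viability relative to DMSO vehicle control wells set as 100%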
Binary label based on viability, T/C with cut-off 60%: below gives Y, not below gives N.

The following molecules have reported results that may help.
- molecule: "Nc1ccn(C2OC(CO)C(O)C2(F)F)c(=O)n1 (stereo not given) + Cc1cccc(N(C)C(=O)C2C(O)CCN2c2nc(C)cc(C(F)(F)F)c2C#N)c1"
  assigned class: "Y"
- molecule: "COc1cc(C2c3cc4c(cc3C(OC3OC5COC(C)OC5C(O)C3O)C3COC(=O)C23)OCO4)cc(OC)c1O (stereo not given) + Cc1cccc(N(C)C(=O)C2C(O)CCN2c2nc(C)cc(C(F)(F)F)c2C#N)c1"
  assigned class: "Y"
- molecule: "COc1cc2cc(C(=O)CCC(=O)O)sc2cc1OC + COC1C(OC(N)=O)C(O)C(Oc2ccc3c(O)c(NC(=O)c4ccc(O)c(CC=C(C)C)c4)c(=O)oc3c2C)OC1(C)C"
  assigned class: "N"
- molecule: "CC1COCCN1c1cc(C2(O)CC3CCC(C2)O3)c2cnn(-c3ccn[nH]3)c2n1 (stereo not given) + COC1C(OC(N)=O)C(O)C(Oc2ccc3c(O)c(NC(=O)c4ccc(O)c(CC=C(C)C)c4)c(=O)oc3c2C)OC1(C)C"
  assigned class: "Y"

Query molecule follows.
Ask | Please check: viability, T/C for CC1COCCN1c1cc(C2(S(C)(=N)=O)CC2)nc(-c2ccnc3[nH]ccc23)n1 (stereo not given) + Nc1ccc(C#CCN(C(=O)Cc2ncc(C(F)(F)F)cc2C(F)(F)F)c2ccc(F)cc2)nn1 , strictly under 60% or not?
Reply | N

* * *

tested on: 926638-142-R-J1-PDC complex spheroid viability; assay: Anticancer human tumor 926638-142-R-J1-PDC cell line growth inhibition [POLQ]; conditions: second compound 0.316 µM; first compound 0.00316 µM; active compounds read low;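 further: spheroids exposed to drugs for one week before readout; percent viability relative to DMSO vehicle control wells set as 100%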
viability, T/C by entry:
Kindly provide the numeric value in % only, without the unit symbol.

- molecule: "COc1cccc(OCCCN)c1-c1cc(Nc2cnc(C#N)cn2)n[nH]1 + COC1C(OC(N)=O)C(O)C(Oc2ccc3c(O)c(NC(=O)c4ccc(O)c(CC=C(C)C)c4)c(=O)oc3c2C)OC1(C)C"
  measure unit: "%"
  viability, T/C: 94.2
- molecule: "CCc1c2c(nc3ccc(O)cc13)-c1cc3c(c(=O)n1C2)COC(=O)[C@]3(O)CC + Nc1ccc(C#CCN(C(=O)Cc2ncc(C(F)(F)F)cc2C(F)(F)F)c2ccc(F)cc2)nn1"
  measure unit: "%"
  viability, T/C: 69.9
- molecule: "CCc1c2c(nc3ccc(O)cc13)-c1cc3c(c(=O)n1C2)COC(=O)[C@]3(O)CC + Cc1cccc(N(C)C(=O)C2C(O)CCN2c2nc(C)cc(C(F)(F)F)c2C#N)c1"
  measure unit: "%"
  viability, T/C: 69.8
- molecule: "COc1cccc(OCCCN)c1-c1cc(Nc2cnc(C#N)cn2)n[nH]1 + Cc1cccc(N(C)C(=O)C2C(O)CCN2c2nc(C)cc(C(F)(F)F)c2C#N)c1"
  measure unit: "%"
  viability, T/C: 99.3

Okay, now this molecule:
Ask | Which value of viability, T/C has been reported for C=CCn1c(=O)c2cnc(Nc3ccc(N4CCN(C)CC4)cc3)nc2n1-c1cccc(C(C)(C)O)n1 + Nc1ccc(C#CCN(C(=O)Cc2ncc(C(F)(F)F)cc2C(F)(F)F)c2ccc(F)cc2)nn1 in the records?
Reply | 109

* * *

system: 926638-142-R-J1-PDC complex spheroid viability; assay: Anticancer human tumor 926638-142-R-J1-PDC cell line growth inhibition [POLQ]; details: second compound 3.16 µM; first compound 0.0316 µM; active compounds read low;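 further: spheroids exposed to drugs for one week before readout; percent viability relative to DMSO vehicle control wells set as 100%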
observable: viability, T/C (%)
Kindly provide the numeric value in % only, without the unit symbol.

- compound: "C=CCn1c(=O)c2cnc(Nc3ccc(N4CCN(C)CC4)cc3)nc2n1-c1cccc(C(C)(C)O)n1 + COC1C(OC(N)=O)C(O)C(Oc2ccc3c(O)c(NC(=O)c4ccc(O)c(CC=C(C)C)c4)c(=O)oc3c2C)OC1(C)C"
  measure unit: "%"
  experimental value: 89.1
- compound: "CCc1cc2c(N3CCc4c(cc(Cn5ccnc5)cc4-c4cn(C)nc4C(F)(F)F)C3=O)ccnc2c(OC)n1 + Nc1ccc(C#CCN(C(=O)Cc2ncc(C(F)(F)F)cc2C(F)(F)F)c2ccc(F)cc2)nn1"
  measure unit: "%"
  experimental value: 68.3
- compound: "CCc1c2c(nc3ccc(O)cc13)-c1cc3c(c(=O)n1C2)COC(=O)[C@]3(O)CC + Nc1ccc(C#CCN(C(=O)Cc2ncc(C(F)(F)F)cc2C(F)(F)F)c2ccc(F)cc2)nn1"
  measure unit: "%"
  experimental value: 30.6
- compound: "CC1COCCN1c1cc(C2(S(C)(=N)=O)CC2)nc(-c2ccnc3[nH]ccc23)n1 (stereo not given) + Nc1ccc(C#CCN(C(=O)Cc2ncc(C(F)(F)F)cc2C(F)(F)F)c2ccc(F)cc2)nn1"
  measure unit: "%"
  experimental value: 100

Okay, now this compound:
Ask | Which value of viability, T/C has been reported for CNCc1ccc(-c2[nH]c3cc(F)cc4c3c2CCNC4=O)cc1 + COC1C(OC(N)=O)C(O)C(Oc2ccc3c(O)c(NC(=O)c4ccc(O)c(CC=C(C)C)c4)c(=O)oc3c2C)OC1(C)C in the records?
Reply | 82.3
